experiment: protein stability index of a GFP-peptide fusion (yeast GPS) (PSI 1-4); higher = more stable; sorted into four equal gates, so the index is relative within each strain; conditions: doa10∆
Assign protein stability index to each entry below.
Numbers only.

# batch: return protein stability index for each of the 4 sequences below
1. QESFVPNSERSGTPTLK [YOR098C/NUP1]
2. YGEAPTSPGFGVSSPGF [RPO21]
3. SSFEENNDLESVSMLLQ [RRI2]
4. VKMLRDNPGYKASKEIK [SIR3]

3.03
3.06
2.98
3.08

* * *

assay: protein stability index of a GFP-peptide fusion (yeast GPS) (PSI 1-4); higher = more stable; sorted into four equal gates, so the index is relative within each strain; settings: doa10∆
Exercise: for every item that follows, state its recorded protein stability index.
Numbers only.

Kindly give each listed record's protein stability index.
1. IGHLITKEEIMHGLQAK [RPN5]
2. RQTGPAKINEVYNNSKD [NSL1]
3. LFHFEEDEGEELTDEYL [PRP8]

[2.91, 3.06, 3.52]

I have 5 sequences here; please give me protein stability index for each one.
1. DKVSSCFPQYVNSKQGA [NNF1]
2. SKLPDPERWLPLRDRST [SRP72]
3. PITSETAMKKVEDGNIL [RPL25]
4. GSPQMLANEERLSNEMH [RGR1]
5. TQTFNGSIFTHETTFMT [YML031W/NDC1]

1: 2.07; 2: 2.09; 3: 3.05; 4: 2.9; 5: 2.86

For each listed entry, give its protein stability index.
1. LGSQSKSDEGGSYLCTS [YOR098C/NUP1]
2. DRGIANIRNNIESQNLD [SRB4]
3. QRDAEISQPKSMSGRIS [BRR2]
4. IYEEVRAVLKSFLESVI [HHF1]
5. ISMLVTQLQRGGTSDMN [CSI1]

1: 3.26; 2: 3.12; 3: 3.22; 4: 3; 5: 3.19

I have 5 sequences here; please give me protein stability index for each one.
1. MSGLPPPPPGFEEDSDL [PRP8]
2. NKELPINHTILGKLQDV [RPN8]
3. KIDKPIRTQVNTGGESV [RGR1]
4. KRLNGKRKYLDIPIDEM [SSN2]
5. DMPCDVLAKRMANLSQI [SCL1]

1. 3.19
2. 2.62
3. 2.4
4. 3.19
5. 1.71
